Below, each entry is listed with its recorded growth inhibition.
Assay: NCI Yeast Anticancer Drug Screen. Data for the mlh1 rad18 strain (AID 175)
Details: S. cerevisiae mlh1 rad18 strain growth inhibition; at 50.0 µM; stronger effect = higher value
About 79,000 compounds went through this panel and 15% of them were active in at least one assay; those are over-represented in the sample as a whole. Calls of active or inactive are those of the source. Rule as the data show it: active = growth inhibition above about 70%; inactive = the rest.

| Compound | Measured Attribute | Readout Value |
| --- | --- | --- |
| CCOC(=O)CCC(NC(=O)c1ccc(Nc2nc3ccccc3nc2-c2cccs2)cc1)C(=O)OCC (configuration not stated) | growth inhibition | -34.7% (inactive) |
| COc1ccc(NC(=O)C2=C(SC)C(C#N)C(=O)N=C2N)cc1 (configuration not stated) | growth inhibition | 1.3% (inactive) |
| CN(C)CC(N)C(=O)O (configuration not stated) | growth inhibition | -18.6% (inactive) |
| COCC1OC(n2cc(C)c(=O)n(C)c2=O)CC1OC (configuration not stated) | growth inhibition | 8% (inactive) |
| COc1cccc(NC(=O)CC(=O)N/N=C/c2ccc(N(CCC#N)CCC#N)c(I)c2)c1 | growth inhibition | 28.7% (inactive) |
| O=[N+]([O-])c1ccc(NC2CCCCC2)nc1 | growth inhibition | -1.55% (inactive) |

Value lookup for growth inhibition; key = CC(=O)Nc1ccc(OC(C)=O)cc1 24.4% (inactive)

Value lookup for growth inhibition; key = CC(C)c1ccc(/C=C/C(=O)c2ccc(F)cc2)cc1 17.6% (inactive)

Value lookup for growth inhibition; key = CC(C)[Si](C#CC[Si](C(C)C)(C(C)C)C(C)C)(C(C)C)C(C)C -9.35% (inactive)

Value lookup for growth inhibition; key = COc1cc(/C=N\N=C(/C)c2ccc(C)cc2C)cc(OC)c1OC 24.6% (inactive)

---

Assay: NCI Yeast Anticancer Drug Screen. Data for the mlh1 rad18 strain (AID 175)
Details: S. cerevisiae mlh1 rad18 strain growth inhibition; at 50.0 µM; stronger effect = higher value
This is part of a sample that, as a whole, favours compounds with a hit. Of some 79,000 tested, about 15% had one in any assay.
Below, each entry is listed with its recorded growth inhibition.
Report the figure in % without appending any unit label.

The following compounds have reported results that may help.
| Compound | Unit Label | Readout Value |
| --- | --- | --- |
| CCCCCC[n+]1ccc(C(=O)c2ccccc2)cc1 | % | 32.6 |
| O=C(O)c1ccc2c3ccc(C(=O)O)c4c(C(=O)O)ccc(c5ccc(C(=O)O)c1c25)c43 | % | -19.1 |
| CC(C)(C)C1=CC(=O)C(C(C)(C)C)=CC1=O | % | 17.7 |
| O=[N+]([O-])c1cccc(CO)c1 | % | -5.7 |
| Cc1cc(O)c(/C=N/C(=S)NCCc2ccccc2)c(=O)o1 | % | -20.6 |
| COC(=O)c1nsc(OC)c1Cl | % | 50.4 |
| C[N+](C)(C)CCOC(=O)C(c1ccccc1)C1(O)CCCC1 (stereo not given) | % | 22.3 |
| Cc1cccc(C(C#N)C(=O)CCCC(=O)Nc2ccccc2[N+](=O)[O-])c1 (stereo not given) | % | 11 |
| CC(=O)NC1=NN(C(C)=O)C(C)(c2ccccc2)S1=O (stereo not given) | % | 14.7 |

Value lookup for growth inhibition; key = O=[N+]([O-])c1cccc2ccc(N/N=C/c3ccccc3O)nc12 19.8
